- ASSAY_SUMMARY: Cytotoxicity against HEK293T cells infected with HIV pseudotyped virions assessed as decrease in cell viability after 48 hrs by WST1 assay
- Format: cell-based, HEK-293T
- PROTOCOL_CONDITIONS: human
ASSAY_METRIC: CC50 at 48 h

## Input Report CC50 at 48 h for "CCN(CC)c1ccc(Oc2ccc(-c3[nH]c4cccc(F)c4c(=O)c3C)cc2F)cc1" please.
## Output > 1.25 µM

* * *

- Tested on: Severe fever with thrombocytopenia syndrome virus
- ASSAY_SUMMARY: Antiviral activity against SFTSV infected in African green monkey Vero cells assessed as reduction in viral titre measured at 4 days post infection
- Format: functional
- PROTOCOL_CONDITIONS: 96 h
ASSAY_METRIC: EC50
Note: a bare number is incomplete; add the unit.

## Input Report EC50 for "CCN(CC)c1ccc(Oc2ccc(-c3[nH]c4cccc(F)c4c(=O)c3C)cc2F)cc1" please.
## Output 300 nM

* * *

Field: EC50. Provide a value for each of the compounds that follow.
- Test system: Hepatitis C virus
- ASSAY_SUMMARY: Antiviral activity against EGFP-fused HCV JFH-1 harboring K78E/E2-G451R/NS3-M260K/NS5A-T462I mutant infected in human Huh7.5.1 cells assessed as reduction in viral RNA level after 2 days by qRT-PCR analysis
- Format: functional, organism-based, Hepacivirus hominis
- PROTOCOL_CONDITIONS: JFH-1, Huh-7.5.1, 48 h
Numbers only, in µM.

The cases that follow already have their EC50 on record.
# COMPOUND, TARGET_OF_ASSAY, EC50 (µM)
records = [
    ("Cc1c(-c2ccc(Cc3ccc(C(O)C(F)(F)F)cc3)cc2)[nH]c2cccc(F)c2c1=O (centres undefined)", "Hepatitis C virus", 3.49),
    ("Cc1c(-c2ccc(Cc3ccc(N4CCCCC4)cc3)cc2)[nH]c2cccc(F)c2c1=O", "Hepatitis C virus", 1.92),
    ("Cc1c(-c2ccc(Cc3ccc(S(=O)(=O)C(F)(F)F)cc3)cc2)[nH]c2cccc(F)c2c1=O", "Hepatitis C virus", 1.76),
    ("Cc1c(-c2ccc(Cc3ccc([S+]([O-])C(F)(F)F)cc3)cc2)[nH]c2cccc(F)c2c1=O (centres undefined)", "Hepatitis C virus", 0.76),
    ("Cc1c(-c2ccc(Oc3ccc(N4CCCCC4)cc3)c(F)c2)[nH]c2cccc(F)c2c1=O", "Hepatitis C virus", 0.1),
    ("CCN(C)c1ccc(Oc2ccc(-c3[nH]c4cccc(F)c4c(=O)c3C)cc2F)cc1", "Hepatitis C virus", 0.24),
    ("Cc1c(-c2ccc(-c3ccc(SC(F)(F)F)cc3)cc2)[nH]c2cccc(F)c2c1=O", "Hepatitis C virus", 2.33),
]

## Input Report EC50 for "Cc1c(-c2ccc(Cc3ccc(C(C)(C)C)cc3)cc2)[nH]c2cccc(F)c2c1=O" please.
## Output 0.29

* * *

- ASSAY_SUMMARY: Selectivity index, ratio of CC50 for human Huh7.5.1 cells to EC50 for EGFP-fused HCV JFH-1 harboring K78E/E2-G451R/NS3-M260K/NS5A-T462I mutant infected in human Huh7.5.1 cells
- Format: toxicity, cell-based
- PROTOCOL_CONDITIONS: read-out: Ratio CC50/EC50
Field: selectivity ratio. Provide a value for each of the compounds that follow.

# COMPOUND, selectivity ratio
records = [
    ("CCN(C)c1ccc(Oc2ccc(-c3[nH]c4cccc(F)c4c(=O)c3C)cc2F)cc1", "> 42"),
    ("Cc1c(-c2ccc(Cc3ccc(C(C)(C)C)cc3)cc2)[nH]c2cccc(F)c2c1=O", "> 17"),
    ("CCN(CC)CCOc1ccc(-c2[nH]c3cccc(F)c3c(=O)c2C)cc1", "> 4"),
    ("Cc1c(-c2ccc(Cc3ccc(Cl)cc3)cc2)[nH]c2cccc(F)c2c1=O", "> 2"),
    ("Cc1c(-c2ccc(Cc3ccc(OC(F)F)cc3)cc2)[nH]c2cccc(F)c2c1=O", "> 5"),
    ("Cc1c(-c2ccc(Cc3ccc(SC(F)(F)F)cc3)cc2)[nH]c2ccc(F)cc2c1=O", "> 4"),
]

Dear colleague, could you send me selectivity ratio for each of the items below? Thanks.
1. Cc1c(-c2ccc(Cc3ccc(S(=O)(=O)C(F)(F)F)cc3)cc2)[nH]c2cccc(F)c2c1=O
2. Cc1c(-c2ccc(Cc3ccc(N4CCCCC4)cc3)cc2)[nH]c2cccc(F)c2c1=O
3. Cc1c(-c2ccc(Cc3ccc(SC(F)(F)F)cc3)cc2)[nH]c2cccc(F)c2c1=O
4. Cc1c(-c2ccc(OCCCN3CCOCC3)cc2)[nH]c2cccc(F)c2c1=O
5. Cc1c(-c2ccc(Cc3ccc(S(F)(F)(F)(F)F)cc3)cc2)[nH]c2cccc(F)c2c1=O
6. Cc1c(-c2ccc(Cc3ccc(OCC(F)(F)F)cc3)cc2)[nH]c2cccc(F)c2c1=O
7. Cc1c(-c2ccc(OCCN3CCCCC3)cc2)[nH]c2cccc(F)c2c1=O

## Output
["> 2", "> 5", "> 27", "> 4", "> 7", "> 6", "> 6"]

* * *

- Test system: Respiratory syncytial virus
- ASSAY_SUMMARY: Antiviral activity against RSV infected in African green monkey Vero cells assessed as inhibition of viral replication measured after 5 to 7 days by plaque formation assay
- Format: functional, organism-based
- PROTOCOL_CONDITIONS: human respiratory syncytial virus
ASSAY_METRIC: EC50 (µM)
One number for each entry, in µM.

## Input Report EC50 for "CCN(CC)c1ccc(Oc2ccc(-c3[nH]c4cccc(F)c4c(=O)c3C)cc2F)cc1" please.
## Output 0.06

* * *

- ASSAY_SUMMARY: Cytotoxicity against MDCK cells infected with Gaussia tagged Influenza A virus (A/Puerto Rico/8/34(H1N1)) measured after 48 hrs by WST1 assay
- Type: cell-based, Canis lupus familiaris
- PROTOCOL_CONDITIONS: dog
ASSAY_METRIC: CC50 at 48 h

## Input Report CC50 at 48 h for "CCN(CC)c1ccc(Oc2ccc(-c3[nH]c4cccc(F)c4c(=O)c3C)cc2F)cc1" please.
## Output > 2500 nM

* * *

- ASSAY_SUMMARY: Cytotoxicity against human Huh7.5.1 cells assessed as decrease in cell viability after 48 hrs by WST1 assay
- Format: cell-based
Field: CC50 at 48 h. Provide a value for each of the compounds that follow.

# COMPOUND, MEASURED_RESULT
rows = [
    ("CCN(CC)c1ccc(Oc2ccc(-c3[nH]c4cccc(F)c4c(=O)c3C)cc2F)cc1", "> 2.5 µM"),
    ("CCCN(CC)c1ccc(Oc2ccc(-c3[nH]c4cccc(F)c4c(=O)c3C)cc2F)cc1", "> 10 µM"),
    ("Cc1c(-c2ccc(Cc3ccc(SC(F)(F)F)cc3)cc2)[nH]c2cc(F)ccc2c1=O", "> 5 µM"),
    ("Cc1c(-c2ccc(Cc3ccc(N4CCCCC4)cc3)cc2)[nH]c2cccc(F)c2c1=O", "> 10 µM"),
]

Dear colleague, could you send me CC50 at 48 h for each of the items below? Thanks.
1. CCN(CC)CCOc1ccc(-c2[nH]c3cccc(F)c3c(=O)c2C)cc1
2. COc1ccc(Cc2ccc(-c3[nH]c4cccc(F)c4c(=O)c3C)cc2)cc1
3. CCN(C)c1ccc(Oc2ccc(-c3[nH]c4cccc(F)c4c(=O)c3C)cc2F)cc1
4. Cc1c(-c2ccc(Oc3ccc(SC(F)(F)F)cc3)c(F)c2)[nH]c2cccc(F)c2c1=O
5. Cc1c(-c2ccc(Cc3ccc(S(F)(F)(F)(F)F)cc3)cc2)[nH]c2cccc(F)c2c1=O

## Output
["> 100 µM", "> 10 µM", "> 10 µM", "> 10 µM", "> 5 µM"]

Dear colleague, could you send me CC50 at 48 h for each of the items below? Thanks.
1. Cc1c(-c2ccc(Cc3ccc([S+]([O-])C(F)(F)F)cc3)cc2)[nH]c2cccc(F)c2c1=O (centres undefined)
2. Cc1c(-c2ccc(Cc3ccc(C(O)C(F)(F)F)cc3)cc2)[nH]c2cccc(F)c2c1=O (centres undefined)
3. Cc1c(-c2ccc(Cc3ccc(N4CCOCC4)cc3)cc2)[nH]c2cccc(F)c2c1=O

## Output
1: > 5 µM; 2: > 10 µM; 3: > 10 µM

Dear colleague, could you send me CC50 at 48 h for each of the items below? Thanks.
1. Cc1c(-c2ccc(Oc3ccc(N(C)C)cc3)c(F)c2)[nH]c2cccc(F)c2c1=O
2. Cc1c(-c2ccc(Cc3ccc(S(=N)(=O)C(F)(F)F)cc3)cc2)[nH]c2cccc(F)c2c1=O (centres undefined)
3. Cc1c(-c2ccc(Cc3ccc(SC(F)(F)F)cc3)cc2)[nH]c2c(F)cccc2c1=O

## Output
1. > 10 µM
2. > 10 µM
3. > 5 µM

Dear colleague, could you send me CC50 at 48 h for each of the items below? Thanks.
1. Cc1c(-c2ccc(Cc3ccc(SC(F)(F)F)cc3)cc2)[nH]c2cccc(F)c2c1=O
2. CCNc1ccc(Oc2ccc(-c3[nH]c4cccc(F)c4c(=O)c3C)cc2F)cc1
3. Cc1c(-c2ccc(Oc3ccc(N4CCNCC4)cc3)c(F)c2)[nH]c2cccc(F)c2c1=O
4. Cc1c(-c2ccc(Cc3ccc(OC(F)F)cc3)cc2)[nH]c2cccc(F)c2c1=O
5. Cc1c(-c2ccc(OCCCN3CCOCC3)cc2)[nH]c2cccc(F)c2c1=O
6. Cc1c(-c2ccc(Cc3ccc(Cl)cc3)cc2)[nH]c2cccc(F)c2c1=O

## Output
1. > 10 µM
2. > 10 µM
3. > 10 µM
4. > 5 µM
5. > 100 µM
6. > 10 µM
